These compounds were tested on UniProt P09382; pKd is the recorded read-out.
Sequence (P09382 whole entry): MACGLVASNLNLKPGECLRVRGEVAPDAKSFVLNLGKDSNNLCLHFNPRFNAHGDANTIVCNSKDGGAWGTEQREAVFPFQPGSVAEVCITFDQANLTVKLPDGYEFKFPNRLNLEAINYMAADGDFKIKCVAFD
// pKd here means minus log10 of the molar concentration (mol/L)

compound: OCC1O[C@@H](SC2O[C@H](CO)C(O)C(n3cc(N4CCOCC4)nn3)[C@H]2O)C(O)C(n2cc(-c3cc(F)c(F)c(F)c3)nn2)[C@H]1O (stereo partly drawn)
pKd: 6.96

compound: CN1CCN(c2cn(C3C(O)[C@@H](CO)OC(S[C@@H]4OC(CO)[C@H](O)C(n5cc(-c6cc(F)c(F)c(F)c6)nn5)C4O)[C@@H]3O)nn2)CC1 (stereo partly drawn)
pKd: 7.46

Now turn to the next compound.
Notebook entry, UniProt P09382 assay: pKd of OCC1O[C@@H](SC2O[C@H](CO)C(O)C(n3cc(C4CCOCC4)nn3)[C@H]2O)C(O)C(n2cc(-c3cc(F)c(F)c(F)c3)nn2)[C@H]1O (stereo partly drawn) = ?
7.24
